Data provenance: patent US7973078B2

Parameter pIC50: see the listing below.
# measurement.target: rat EP1 receptor (Rattus norvegicus)
# Sequence (P70597 1-405): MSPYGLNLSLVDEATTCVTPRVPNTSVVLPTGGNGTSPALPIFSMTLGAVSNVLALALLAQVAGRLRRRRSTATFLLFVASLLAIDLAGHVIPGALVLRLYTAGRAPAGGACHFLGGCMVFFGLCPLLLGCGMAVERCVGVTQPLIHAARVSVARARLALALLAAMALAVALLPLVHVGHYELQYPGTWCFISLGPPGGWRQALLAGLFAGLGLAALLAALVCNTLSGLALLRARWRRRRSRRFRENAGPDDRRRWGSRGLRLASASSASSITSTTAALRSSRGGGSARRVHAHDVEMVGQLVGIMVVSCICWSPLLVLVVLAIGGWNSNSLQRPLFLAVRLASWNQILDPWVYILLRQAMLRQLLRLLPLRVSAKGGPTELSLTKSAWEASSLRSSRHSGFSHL
# measurement.description: Receptor antagonistic activity using cells expressing an EP1 receptor (PGE2-induced intracellular Ca change, FLIPR)
# conditions: HEK293 cells stably expressing rat EP1 receptors; 100 nM PGE2; Ca concentration in cells
Friendly reminder that pIC50 comes from taking -log10 of the concentration in mol/L.

[[record]]
smiles_repr = "COC(=O)c1ccc(CNC(=O)CN(c2cccc(Cl)c2C)S(=O)(=O)c2ccc(C)cc2)cc1"
numeric_value = 9.00

[[record]]
smiles_repr = "Cc1ccc(S(=O)(=O)N(CC(=O)NCc2ccc(-n3cccn3)cc2)c2cccc(Cl)c2C)cc1"
numeric_value = 8.60

[[record]]
smiles_repr = "COc1ccc(CNC(=O)CN(c2cccc(Cl)c2C)S(=O)(=O)c2ccc(C)cc2)cc1"
numeric_value = 7.80


Now for another entry.
Q. Would you mind telling me what pIC50 value was observed for CCc1c(Cl)cccc1N(CC(=O)NCc1cccc(/C=C/C(=O)O)c1)S(=O)(=O)c1ccc(C)cc1 ?
A. 9.00
